- Study system: Delta-type opioid receptor (Homo sapiens, UniProt P41143)
- Sequence (P41143 whole entry): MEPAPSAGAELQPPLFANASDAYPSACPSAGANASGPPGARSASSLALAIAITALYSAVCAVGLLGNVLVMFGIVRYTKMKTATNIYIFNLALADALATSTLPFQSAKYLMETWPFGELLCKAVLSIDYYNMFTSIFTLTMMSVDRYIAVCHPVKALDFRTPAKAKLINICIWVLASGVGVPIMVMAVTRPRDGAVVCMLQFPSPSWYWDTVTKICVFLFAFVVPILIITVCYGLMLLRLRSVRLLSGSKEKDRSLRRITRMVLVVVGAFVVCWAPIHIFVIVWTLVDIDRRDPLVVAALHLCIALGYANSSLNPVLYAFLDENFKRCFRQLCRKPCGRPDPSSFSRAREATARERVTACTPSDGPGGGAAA
- Assay summary: Displacement of [3H]DPDE from delta opioid receptor
pIC50: −log10 of the molar value.
Please enter true where pIC50 is greater than or equal to 5, and false where it is lower.

Exercise: hey, is pIC50 for this one >= 5? CNC[C@@H](Cc1ccccc1)N(C)C[C@@H](Cc1ccc(O)cc1)N(C)C[C@@H](Cc1ccc(O)cc1)N(C)C
Key: true

Exercise: hey, is pIC50 for this one >= 5? CNC[C@H](Cc1ccccc1)N(C)C[C@@H](Cc1ccc(O)cc1)N(C)C[C@@H](Cc1ccc(O)cc1)N(C)C
Key: false

Exercise: hey, is pIC50 for this one >= 5? CNC[C@@H](Cc1ccccc1)N(C)C[C@@H](Cc1ccc(O)cc1)N(C)C[C@H](Cc1ccc(O)cc1)N(C)C
Key: false

====

Answer each item with its documented IC50.
- Study system: Delta-type opioid receptor (Homo sapiens)
- Assay summary: Displacement of [3H]DPDE from delta opioid receptor
Numbers only, in µM.

Exercise: Read the entry CN(C)[C@H](CN[C@H](CN)Cc1ccc(O)cc1)Cc1ccc(O)cc1 and write its reported IC50.
Key: 17.9

Exercise: Read the entry CNC[C@H](Cc1ccccc1)N(C)C[C@H](Cc1ccc(O)cc1)N(C)C[C@H](Cc1ccc(O)cc1)N(C)C and write its reported IC50.
Key: 4.89

Exercise: Read the entry CNC[C@H](Cc1ccccc1)N(C)C[C@H](Cc1ccc(O)cc1)N(C)C[C@@H](Cc1ccc(O)cc1)N(C)C and write its reported IC50.
Key: 9.05

Exercise: Read the entry CNC[C@H](Cc1ccc(O)cc1)N(Cc1ccccc1)C[C@@H](N)Cc1ccc(O)cc1 and write its reported IC50.
Key: 35.6

Consider the record given below.
Exercise: Read the entry CNC[C@H](Cc1ccc(O)cc1)N(Cc1ccccc1)C[C@H](Cc1ccc(O)cc1)N(C)C and write its reported IC50.
Key: 56.7

====

Assay system Kappa-type opioid receptor (Homo sapiens, UniProt P41145); read-out recorded as IC50.
One number for each entry, in µM.

Exercise: Read the entry CNC[C@H](Cc1ccccc1)N(C)C[C@H](Cc1ccc(O)cc1)N(C)C[C@@H](Cc1ccc(O)cc1)N(C)C and write its reported IC50.
Key: 10.5

Exercise: Read the entry CNC[C@@H](Cc1ccccc1)N(C)C[C@H](Cc1ccc(O)cc1)N(C)C[C@@H](Cc1ccc(O)cc1)N(C)C and write its reported IC50.
Key: 15.6

Exercise: Read the entry CNC[C@H](Cc1ccccc1)N(C)C[C@@H](Cc1ccc(O)cc1)N(C)C[C@@H](Cc1ccc(O)cc1)N(C)C and write its reported IC50.
Key: 6.06

Exercise: Read the entry CNC[C@H](Cc1ccc(O)cc1)N(Cc1ccccc1)C[C@H](Cc1ccc(O)cc1)N(C)C and write its reported IC50.
Key: 10.6

Exercise: Read the entry CNC[C@H](Cc1ccccc1)N(C)C[C@H](Cc1ccc(O)cc1)N(C)C[C@H](Cc1ccc(O)cc1)N(C)C and write its reported IC50.
Key: 1.05

Exercise: Read the entry CN[C@H](CN[C@H](CN)Cc1ccc(O)cc1)Cc1ccc(O)cc1 and write its reported IC50.
Key: 9.67

For the 5 compounds below, give their IC50 values.
1. CNC[C@@H](Cc1ccccc1)N(C)C[C@@H](Cc1ccc(O)cc1)N(C)C[C@@H](Cc1ccc(O)cc1)N(C)C
2. CNC[C@H](Cc1ccc(O)cc1)N(Cc1ccccc1)C[C@@H](N)Cc1ccc(O)cc1
3. CNC[C@@H](Cc1ccccc1)N(C)C[C@@H](Cc1ccc(O)cc1)N(C)C[C@H](Cc1ccc(O)cc1)N(C)C
4. NC[C@H](Cc1ccc(O)cc1)NC[C@@H](N)Cc1ccc(O)cc1
5. CN[C@@H](Cc1ccc(O)cc1)CN(C)[C@H](CNCc1ccccc1)Cc1ccc(O)cc1

Key:
8.76
14.4
22.4
32.2
3.85

For the 2 compounds below, give their IC50 values.
1. CNC[C@@H](Cc1ccccc1)N(C)C[C@H](Cc1ccc(O)cc1)N(C)C[C@@H](N)Cc1ccc(O)cc1
2. CN(C)[C@H](CN[C@H](CN)Cc1ccc(O)cc1)Cc1ccc(O)cc1

Key:
[1.45, 22.6]

For the 4 compounds below, give their IC50 values.
1. CN(C[C@@H](N)Cc1ccc(O)cc1)[C@H](CNCc1ccccc1)Cc1ccc(O)cc1
2. CN(C)[C@@H](Cc1ccc(O)cc1)CN(C)[C@H](CNCc1ccccc1)Cc1ccc(O)cc1
3. CNC[C@H](Cc1ccccc1)N(C)C[C@@H](Cc1ccc(O)cc1)N(C)C[C@@H](N)Cc1ccc(O)cc1
4. CNC[C@H](Cc1ccc(O)cc1)N(Cc1ccccc1)C[C@H](Cc1ccc(O)cc1)NC

Key:
[4.14, 2.36, 22.5, 11.1]

====

- Study system: Mu-type opioid receptor (Cavia porcellus)
- Sequence (P97266 whole entry): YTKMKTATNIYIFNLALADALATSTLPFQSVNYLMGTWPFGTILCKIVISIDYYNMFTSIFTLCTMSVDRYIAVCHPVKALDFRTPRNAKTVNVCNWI
- Assay summary: Antagonist activity against mu opioid receptor in guinea-pig ileum assay
Parameter measured: log10 of IC50 (log10 of the value in nM)
Note: values are log10 of IC50 expressed in nM.

Please review the following examples before continuing.
Exercise: Read the entry CNC[C@@H]1CCCN1C[C@H](Cc1ccccc1)N(C)C[C@H](Cc1ccc(O)cc1)N(C)C[C@H](Cc1ccc(O)cc1)N(C)C and write its reported log10 of IC50.
Key: 0.90

Exercise: Read the entry N[C@@H](Cc1ccc(O)cc1)CN(Cc1ccc2ccccc2c1)[C@@H](Cc1ccc(O)cc1)CN(Cc1ccc2ccccc2c1)[C@@H](Cc1ccccc1)CN1CCC[C@H]1CNCc1ccc2ccccc2c1 and write its reported log10 of IC50.
Key: 4.27

Exercise: Read the entry CNC[C@@H]1CCCN1C[C@H](Cc1ccccc1)N(C)C[C@H](Cc1ccc(O)cc1)N(C)C[C@@H](N)Cc1ccc(O)cc1 and write its reported log10 of IC50.
Key: 1.11

Exercise: Read the entry NC[C@@H]1CCCN1C[C@H](Cc1ccccc1)NC[C@H](Cc1ccc(O)cc1)NC[C@@H](N)Cc1ccc(O)cc1 and write its reported log10 of IC50.
Key: 0.78

Exercise: Read the entry N[C@@H](Cc1ccc(O)cc1)CN(Cc1ccccc1)[C@@H](Cc1ccc(O)cc1)CN(Cc1ccccc1)[C@@H](Cc1ccccc1)CN1CCC[C@H]1CNCc1ccccc1 and write its reported log10 of IC50.
Key: 3.65

Exercise: Read the entry CNC[C@@H]1CCCN1C[C@H](Cc1ccccc1)N(C)C[C@H](Cc1ccc(O)cc1)N(C)C[C@H](Cc1ccc(O)cc1)NC and write its reported log10 of IC50.
Key: 0.30

Consider the record given below.
Exercise: Read the entry CCNC[C@@H]1CCCN1C[C@H](Cc1ccccc1)N(CC)C[C@H](Cc1ccc(O)cc1)N(CC)C[C@@H](N)Cc1ccc(O)cc1 and write its reported log10 of IC50.
Key: 1.65

====

- Study system: Mu-type opioid receptor (Rattus norvegicus, UniProt P33535)
- Sequence (P33535 whole entry): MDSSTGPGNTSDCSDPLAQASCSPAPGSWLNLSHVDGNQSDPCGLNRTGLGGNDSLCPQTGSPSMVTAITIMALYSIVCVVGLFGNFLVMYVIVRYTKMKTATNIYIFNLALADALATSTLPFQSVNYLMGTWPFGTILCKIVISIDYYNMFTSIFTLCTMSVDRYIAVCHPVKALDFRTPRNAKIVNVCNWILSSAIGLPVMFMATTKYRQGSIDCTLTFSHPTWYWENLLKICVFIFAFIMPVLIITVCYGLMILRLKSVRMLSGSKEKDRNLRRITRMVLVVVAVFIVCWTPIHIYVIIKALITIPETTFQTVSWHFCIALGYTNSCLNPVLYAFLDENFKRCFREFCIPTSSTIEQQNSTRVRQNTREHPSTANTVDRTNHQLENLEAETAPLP
Checkbox rule: IC50 lower than 80 nM = yes; IC50 not lower than 80 nM = no.

Exercise: Quick check: IC50 of CCN[C@H](CN[C@H](CN[C@H](CN[C@H](CN[C@H](CN[C@H](CN)Cc1ccc(O)cc1)Cc1ccc(O)cc1)Cc1ccccc1)Cc1ccc(O)cc1)Cc1ccc(O)cc1)Cc1ccc(O)cc1 under 80 nM?
Key: no

Exercise: Quick check: IC50 of CNC[C@H](Cc1ccc(O)cc1)N(Cc1ccccc1)C[C@H](Cc1ccc(O)cc1)NC under 80 nM?
Key: no

Exercise: Quick check: IC50 of CCN[C@H](CN[C@H](CN[C@@H](Cc1ccccc1)CN1CCC[C@H]1CN[C@H](CN[C@H](CN)CO)Cc1ccc(O)cc1)Cc1ccc(O)cc1)Cc1ccc(O)cc1 (stereo in doubt; 5) under 80 nM?
Key: yes

More entries:
Exercise: Quick check: IC50 of CCN[C@H](CN[C@H](CN[C@H](CN[C@H](CN[C@H](CN[C@H](CN)Cc1ccccc1)Cc1ccc(O)cc1)Cc1ccccc1)Cc1ccc(O)cc1)Cc1ccc(O)cc1)Cc1ccc(O)cc1 under 80 nM?
Key: no

Exercise: Quick check: IC50 of CCN[C@H](CN[C@H](CN[C@@H](Cc1ccc(O)cc1)CN1CCC[C@H]1CN[C@H](CN[C@H](CN)CO)Cc1ccc(O)cc1)Cc1ccc(O)cc1)Cc1ccc(O)cc1 under 80 nM?
Key: no

Exercise: Quick check: IC50 of CCN[C@H](CN[C@H](CN[C@@H](Cc1ccccc1)CN1CCC[C@H]1CN[C@@H](CN[C@H](CN)Cc1ccccc1)[C@@H](C)O)Cc1ccc(O)cc1)Cc1ccc(O)cc1 under 80 nM?
Key: yes

Exercise: Quick check: IC50 of CNC[C@H](Cc1ccccc1)N(C)C[C@H](Cc1ccc(O)cc1)N(C)C[C@@H](Cc1ccc(O)cc1)N(C)C under 80 nM?
Key: no

Exercise: Quick check: IC50 of CNC[C@@H](Cc1ccccc1)N(C)C[C@@H](Cc1ccc(O)cc1)N(C)C[C@@H](Cc1ccc(O)cc1)N(C)C under 80 nM?
Key: no

Exercise: Quick check: IC50 of CCN[C@H](CN[C@H](CN[C@@H](Cc1ccc(O)cc1)CN1CCC[C@H]1CN[C@@H](CN[C@H](CN)Cc1ccc(O)cc1)[C@@H](C)O)Cc1ccc(O)cc1)Cc1ccc(O)cc1 under 80 nM?
Key: yes

Exercise: Quick check: IC50 of CCN[C@H](CN[C@H](CN[C@H](CN[C@H](CN[C@@H](Cc1ccc(O)cc1)CN1CCC[C@H]1CN)Cc1ccccc1)Cc1ccccc1)Cc1ccc(O)cc1)Cc1ccc(O)cc1 under 80 nM?
Key: yes

Exercise: Quick check: IC50 of CCN[C@H](CN[C@H](CN[C@H](CN[C@H](CN[C@H](CN)Cc1ccc(O)cc1)Cc1ccc(O)cc1)Cc1ccc(O)cc1)Cc1ccc(O)cc1)Cc1ccc(O)cc1 under 80 nM?
Key: no
